- Tested on: 233499-124-R-J3-PDC spheroids with HUVEC/MSC, viability
- assay comment: Anticancer human tumor 233499-124-R-J3-PDC patient-derived colon adenocarcinoma cell line growth inhibition [PI3K]
- condition set: second compound 0.1 µM; first compound 0.1 µM; stronger effect = lower value
- Text: Combinatorial screen of targeted agents with the PI3K inhibitors inavolisib, alpelisib, duvelisib, and copanlisib in multi-cell type tumor spheroids A high-throughput screen of multi-cell type tumor spheroids was designed to identify active combinations of targeted small molecules and PI3K pathway inhibitors. […] Compounds. […] If the clinical Cmax for an agent had not been determined, the highest concentration tested was 10 microM. […]
readout kind: viability, T/C (%)
Write it as a number; the unit % goes unstated.

Please indicate viability, T/C recorded for CC(Cn1ccc(-c2ccc(C#N)c(Cl)c2)n1)NC(=O)c1cc(C(C)O)[nH]n1 (stereo not drawn) + CC(Nc1ncnc2nc[nH]c12)c1cc2cccc(Cl)c2c(=O)n1-c1ccccc1
91.6

Please indicate viability, T/C recorded for CC(Cn1ccc(-c2ccc(C#N)c(Cl)c2)n1)NC(=O)c1cc(C(C)O)[nH]n1 (stereo not drawn) + CC(Nc1ccc2c(c1)OCCn1cc(N3C(=O)OCC3C(F)F)nc1-2)C(N)=O
89.3

Please indicate viability, T/C recorded for Cn1ncnc1[C@H]1c2n[nH]c(=O)c3cc(F)cc(c23)N[C@@H]1c1ccc(F)cc1 + Cc1nc(NC(=O)N2CCCC2C(N)=O)sc1-c1ccnc(C(C)(C)C(F)(F)F)c1
90.3

* * *

Please respond with reported viability, T/C for every item in the list.
- System: 233499-124-R-J3-PDC spheroids with HUVEC/MSC, viability
- assay comment: Anticancer human tumor 233499-124-R-J3-PDC cell line growth inhibition [PI3K];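 also: spheroids exposed to agents for seven days before readout; percent viability relative to DMSO vehicle control taken as 100%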
- condition set: second compound 0.1 µM; first compound 0.1 µM; stronger effect = lower value
Write it as a number; the unit % goes unstated.

With 233499-124-R-J3-PDC spheroids with HUVEC/MSC, viability as the test system, provide measured viability, T/C for this compound: C#Cc1c(F)ccc2cc(O)cc(-c3ncc4c(N5CC6CCC(C5)N6)nc(OCC56CCCN5CC(F)C6)nc4c3F)c12 (stereo not given) + COc1c(OCCCN2CCOCC2)ccc2c3n(c(=NC(=O)c4cnc(N)nc4)nc12)CCN3
86.5

With 233499-124-R-J3-PDC spheroids with HUVEC/MSC, viability as the test system, provide measured viability, T/C for this compound: C#Cc1c(F)ccc2cc(O)cc(-c3ncc4c(N5CC6CCC(C5)N6)nc(OCC56CCCN5CC(F)C6)nc4c3F)c12 (stereo not given) + CC(Nc1ncnc2nc[nH]c12)c1cc2cccc(Cl)c2c(=O)n1-c1ccccc1
114

With 233499-124-R-J3-PDC spheroids with HUVEC/MSC, viability as the test system, provide measured viability, T/C for this compound: CC(C)n1nc(-c2ccc3oc(N)nc3c2)c2c(N)ncnc21 + CC(Nc1ncnc2nc[nH]c12)c1cc2cccc(Cl)c2c(=O)n1-c1ccccc1
45.9

With 233499-124-R-J3-PDC spheroids with HUVEC/MSC, viability as the test system, provide measured viability, T/C for this compound: CC(=O)c1c(C)c2cnc(Nc3ccc(N4CCNCC4)cn3)nc2n(C2CCCC2)c1=O + Cc1nc(NC(=O)N2CCCC2C(N)=O)sc1-c1ccnc(C(C)(C)C(F)(F)F)c1
54.5

With 233499-124-R-J3-PDC spheroids with HUVEC/MSC, viability as the test system, provide measured viability, T/C for this compound: C#Cc1c(F)ccc2cc(O)cc(-c3ncc4c(N5CC6CCC(C5)N6)nc(OCC56CCCN5CC(F)C6)nc4c3F)c12 (stereo not given) + CC(Nc1ccc2c(c1)OCCn1cc(N3C(=O)OCC3C(F)F)nc1-2)C(N)=O
81

With 233499-124-R-J3-PDC spheroids with HUVEC/MSC, viability as the test system, provide measured viability, T/C for this compound: CC1(C)CCC(CN2CCN(c3ccc(C(=O)NS(=O)(=O)c4ccc(NCC5CCOCC5)c([N+](=O)[O-])c4)c(Oc4cnc5[nH]ccc5c4)c3)CC2)=C(c2ccc(Cl)cc2)C1 + CC(Nc1ccc2c(c1)OCCn1cc(N3C(=O)OCC3C(F)F)nc1-2)C(N)=O
85.6

With 233499-124-R-J3-PDC spheroids with HUVEC/MSC, viability as the test system, provide measured viability, T/C for this compound: C[C@@H](NC(=O)c1ncnc(N)c1Cl)c1ncc(C(=O)Nc2cc(C(F)(F)F)c(Cl)cn2)s1 + CC(Nc1ncnc2nc[nH]c12)c1cc2cccc(Cl)c2c(=O)n1-c1ccccc1
105

With 233499-124-R-J3-PDC spheroids with HUVEC/MSC, viability as the test system, provide measured viability, T/C for this compound: CC(Cn1ccc(-c2ccc(C#N)c(Cl)c2)n1)NC(=O)c1cc(C(C)O)[nH]n1 (stereo not given) + Cc1nc(NC(=O)N2CCCC2C(N)=O)sc1-c1ccnc(C(C)(C)C(F)(F)F)c1
106

With 233499-124-R-J3-PDC spheroids with HUVEC/MSC, viability as the test system, provide measured viability, T/C for this compound: C[C@@H](NC(=O)c1ncnc(N)c1Cl)c1ncc(C(=O)Nc2cc(C(F)(F)F)c(Cl)cn2)s1 + Cc1nc(NC(=O)N2CCCC2C(N)=O)sc1-c1ccnc(C(C)(C)C(F)(F)F)c1
90.3

With 233499-124-R-J3-PDC spheroids with HUVEC/MSC, viability as the test system, provide measured viability, T/C for this compound: C=CC(=O)N1CCN(c2nc(=O)n(-c3c(C)ccnc3C(C)C)c3nc(-c4c(O)cccc4F)c(F)cc23)C(C)C1 (stereo not given) + Cc1nc(NC(=O)N2CCCC2C(N)=O)sc1-c1ccnc(C(C)(C)C(F)(F)F)c1
96.3

* * *

- Test system: 233499-124-R-J3-PDC spheroids with HUVEC/MSC, viability
- assay comment: Anticancer human tumor 233499-124-R-J3-PDC cell line growth inhibition [PI3K];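 also: spheroids exposed to agents for seven days before readout; percent viability relative to DMSO vehicle control taken as 100%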
- condition set: second compound 3.16 µM; first compound 0.1 µM; stronger effect = lower value
viability, T/C vs 80%: less than gives 1; not less than gives 0.

Please state whether viability, T/C is below 80% for CC1(C)CCC(CN2CCN(c3ccc(C(=O)NS(=O)(=O)c4ccc(NCC5CCOCC5)c([N+](=O)[O-])c4)c(Oc4cnc5[nH]ccc5c4)c3)CC2)=C(c2ccc(Cl)cc2)C1 + Cc1nc(NC(=O)N2CCCC2C(N)=O)sc1-c1ccnc(C(C)(C)C(F)(F)F)c1
1

Please state whether viability, T/C is below 80% for CC(C)NCC(C(=O)N1CCN(c2ncnc3c2C(C)CC3O)CC1)c1ccc(Cl)cc1 (configuration not stated) + CC(Nc1ncnc2nc[nH]c12)c1cc2cccc(Cl)c2c(=O)n1-c1ccccc1
0

Please state whether viability, T/C is below 80% for CCN1CCN(Cc2ccc(Nc3ncc(F)c(-c4cc(F)c5nc(C)n(C(C)C)c5c4)n3)nc2)CC1 + CC(Nc1ncnc2nc[nH]c12)c1cc2cccc(Cl)c2c(=O)n1-c1ccccc1
1

Please state whether viability, T/C is below 80% for CC(Cn1ccc(-c2ccc(C#N)c(Cl)c2)n1)NC(=O)c1cc(C(C)O)[nH]n1 (configuration not stated) + CC(Nc1ncnc2nc[nH]c12)c1cc2cccc(Cl)c2c(=O)n1-c1ccccc1
0

Please state whether viability, T/C is below 80% for CNC(=O)c1ccc(N2C(=S)N(c3ccc(C#N)c(C(F)(F)F)c3)C(=O)C2(C)C)cc1F + CC(Nc1ncnc2nc[nH]c12)c1cc2cccc(Cl)c2c(=O)n1-c1ccccc1
1

Please state whether viability, T/C is below 80% for CC(=O)c1c(C)c2cnc(Nc3ccc(N4CCNCC4)cn3)nc2n(C2CCCC2)c1=O + CC(Nc1ncnc2nc[nH]c12)c1cc2cccc(Cl)c2c(=O)n1-c1ccccc1
1

Please state whether viability, T/C is below 80% for C#Cc1c(F)ccc2cc(O)cc(-c3ncc4c(N5CC6CCC(C5)N6)nc(OCC56CCCN5CC(F)C6)nc4c3F)c12 (configuration not stated) + CC(Nc1ncnc2nc[nH]c12)c1cc2cccc(Cl)c2c(=O)n1-c1ccccc1
0

Please state whether viability, T/C is below 80% for Cn1ncnc1[C@H]1c2n[nH]c(=O)c3cc(F)cc(c23)N[C@@H]1c1ccc(F)cc1 + CC(Nc1ncnc2nc[nH]c12)c1cc2cccc(Cl)c2c(=O)n1-c1ccccc1
1

Please state whether viability, T/C is below 80% for CNC(=O)c1ccc(N2C(=S)N(c3ccc(C#N)c(C(F)(F)F)c3)C(=O)C2(C)C)cc1F + Cc1nc(NC(=O)N2CCCC2C(N)=O)sc1-c1ccnc(C(C)(C)C(F)(F)F)c1
1

Please state whether viability, T/C is below 80% for CC1(C)CCC(Nc2ncc(C(F)(F)F)c(-c3c[nH]c4c(P(C)(C)=O)c(C#N)ccc34)n2)CN1 (configuration not stated) + CC(Nc1ncnc2nc[nH]c12)c1cc2cccc(Cl)c2c(=O)n1-c1ccccc1
1

Please state whether viability, T/C is below 80% for CCCS(=O)(=O)Nc1ccc(F)c(C(=O)c2c[nH]c3ncc(-c4ccc(Cl)cc4)cc23)c1F + Cc1nc(NC(=O)N2CCCC2C(N)=O)sc1-c1ccnc(C(C)(C)C(F)(F)F)c1
1

Please state whether viability, T/C is below 80% for C=CC(=O)N1CCN(c2nc(=O)n(-c3c(C)ccnc3C(C)C)c3nc(-c4c(O)cccc4F)c(F)cc23)C(C)C1 (configuration not stated) + CC(Nc1ncnc2nc[nH]c12)c1cc2cccc(Cl)c2c(=O)n1-c1ccccc1
0

Please state whether viability, T/C is below 80% for Cn1ncnc1[C@H]1c2n[nH]c(=O)c3cc(F)cc(c23)N[C@@H]1c1ccc(F)cc1 + Cc1nc(NC(=O)N2CCCC2C(N)=O)sc1-c1ccnc(C(C)(C)C(F)(F)F)c1
1

Please state whether viability, T/C is below 80% for CCN1CCN(Cc2ccc(Nc3ncc(F)c(-c4cc(F)c5nc(C)n(C(C)C)c5c4)n3)nc2)CC1 + Cc1nc(NC(=O)N2CCCC2C(N)=O)sc1-c1ccnc(C(C)(C)C(F)(F)F)c1
1

Please state whether viability, T/C is below 80% for CCCS(=O)(=O)Nc1ccc(F)c(C(=O)c2c[nH]c3ncc(-c4ccc(Cl)cc4)cc23)c1F + CC(Nc1ncnc2nc[nH]c12)c1cc2cccc(Cl)c2c(=O)n1-c1ccccc1
0

Please state whether viability, T/C is below 80% for Cn1nccc1Nc1nccc(-c2ccn(C(CO)c3ccc(Cl)c(F)c3)c(=O)c2)n1 (configuration not stated) + CC(Nc1ncnc2nc[nH]c12)c1cc2cccc(Cl)c2c(=O)n1-c1ccccc1
0

Please state whether viability, T/C is below 80% for Cn1ncc(Cl)c1-c1cc(C(=O)NC(CN)Cc2cccc(F)c2)sc1Cl (configuration not stated) + CC(Nc1ncnc2nc[nH]c12)c1cc2cccc(Cl)c2c(=O)n1-c1ccccc1
0

Please state whether viability, T/C is below 80% for CC1(C)CCC(CN2CCN(c3ccc(C(=O)NS(=O)(=O)c4ccc(NCC5CCOCC5)c([N+](=O)[O-])c4)c(Oc4cnc5[nH]ccc5c4)c3)CC2)=C(c2ccc(Cl)cc2)C1 + CC(Nc1ncnc2nc[nH]c12)c1cc2cccc(Cl)c2c(=O)n1-c1ccccc1
0

Please state whether viability, T/C is below 80% for CC(Cn1ccc(-c2ccc(C#N)c(Cl)c2)n1)NC(=O)c1cc(C(C)O)[nH]n1 (configuration not stated) + Cc1nc(NC(=O)N2CCCC2C(N)=O)sc1-c1ccnc(C(C)(C)C(F)(F)F)c1
1

Please state whether viability, T/C is below 80% for CC(=O)c1c(C)c2cnc(Nc3ccc(N4CCNCC4)cn3)nc2n(C2CCCC2)c1=O + Cc1nc(NC(=O)N2CCCC2C(N)=O)sc1-c1ccnc(C(C)(C)C(F)(F)F)c1
1

Please state whether viability, T/C is below 80% for CC(C)n1nc(-c2ccc3oc(N)nc3c2)c2c(N)ncnc21 + Cc1nc(NC(=O)N2CCCC2C(N)=O)sc1-c1ccnc(C(C)(C)C(F)(F)F)c1
1

Please state whether viability, T/C is below 80% for CC(C)n1nc(-c2ccc3oc(N)nc3c2)c2c(N)ncnc21 + CC(Nc1ncnc2nc[nH]c12)c1cc2cccc(Cl)c2c(=O)n1-c1ccccc1
1
